Tested on: amino acid dehydrogenase
MEASUREMENT NOTES: Substrate specificity of the purified amino acid dehydrogenase (reductive amination of 2-oxo acids)
Format: biochemical, Rhodococcus qingshengii strain KNK2108
APPLIED CONDITIONS: activity for phenylpyruvic acid = 100%; 30° C., pH 9.0; naphthylpyruvic and indolepyruvic acid by HPLC of the product formed in 30 minutes
PROPERTY LABEL: Relative activity (%)

1. O=C(O)C(=O)Cc1ccccc1 [Phenylpyruvic acid] : 100.0
2. CSCCC(=O)C(=O)O [2-Oxo-4-(methylthio)butanoic acid] : 34.6
3. O=C(O)C(=O)Cc1c[nH]c2ccccc12 [Indolepyruvic acid] : 19.7
4. O=C(O)C(=O)CCc1ccccc1 [Homophenylpyruvic acid] : 19.1
5. CC(C)CC(=O)C(=O)O [2-Oxo-4-methylvaleric acid] : 3.5
6. O=C(O)C(=O)Cc1ccc(O)cc1 [4-Hydroxyphenylpyruvic acid] : 96.3
